Taken from patent US9102752B2.

Below: a set of entries, each annotated with reported Epitope mapping, fine specificity analysis, serum of subject P102.
- Tested on: anti-Aβ antibodies in sera of vaccinated patients
- assay-remarks: Epitope mapping, competitive binding inhibition EIA with patient sera (10-mer peptides, IC50)
- Set-up: species or system human
- assay-context: serum 16 wpi of vaccinated patient P102
measurement-kind: Epitope mapping, fine specificity analysis, serum of subject P102

> print(dat)
                                  substance  recorded.number
1  25 (YEVHHQKLVF; PEPTIDE (1)..(10) Abeta 10-19 or APP 770(Y681-F690); listed as Homo sapiens) [compound 25]                0
2  24 (GYEVHHQKLV; PEPTIDE (1)..(10) Abeta 9-18 or APP 770(G680-V689); listed as Homo sapiens) [compound 24]                0
3  29 (HQKLVFFAED; PEPTIDE (1)..(10) Abeta 14-23 or APP 770(H685-D694); listed as Homo sapiens) [compound 29]                0
4  16 (MDAEFRHDSG; PEPTIDE (1)..(10) Abeta -1-9 or APP 770(M671-G680); listed as Homo sapiens) [compound 16]               12
5  30 (QKLVFFAEDV; PEPTIDE (1)..(10) Abeta 15-24 or APP 770(Q686-V695); listed as Homo sapiens) [compound 30]                0
6  28 (HHQKLVFFAE; PEPTIDE (1)..(10) Abeta 13-22 or APP 770(H684-E693); listed as Homo sapiens) [compound 28]                0
